# study.system: GST-Aq-NF-kB (Amphimedon queenslandica, UniProt A9Y5G7 2-389)
# Sequence: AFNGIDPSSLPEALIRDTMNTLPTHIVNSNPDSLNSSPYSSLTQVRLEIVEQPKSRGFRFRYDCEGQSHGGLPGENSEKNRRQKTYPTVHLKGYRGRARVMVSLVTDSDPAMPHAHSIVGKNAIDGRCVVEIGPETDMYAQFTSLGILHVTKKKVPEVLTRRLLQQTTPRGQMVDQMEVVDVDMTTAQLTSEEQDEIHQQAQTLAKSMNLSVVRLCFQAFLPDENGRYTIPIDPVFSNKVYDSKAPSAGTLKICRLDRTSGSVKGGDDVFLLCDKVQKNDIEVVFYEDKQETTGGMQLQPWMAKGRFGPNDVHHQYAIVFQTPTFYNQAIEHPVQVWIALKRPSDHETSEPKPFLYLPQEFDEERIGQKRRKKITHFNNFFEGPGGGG
# test: protein-binding microarray (PBM); PBM: ~300 nM protein, 6 mM HEPES pH 7.8, 80 mM KCl, 0.5 mM EDTA, 0.5 mM EGTA, 6% glycerol, 35 ng/ul poly-dIdC, 1% milk, 1 h, room temperature; high values mean tight binding
# experimental.context: dsDNA, one strand shown
recorded.endpoint: binding signal (z-score)
Please state the figure in z-score; there is no need to write the unit.

[ask] Which binding signal reading was recorded for the sequence CCGATTAACATCAAAAACTTCCCTGATGTTAATCGGGTCTTGATTCGCTTGACGCTGCTG ?
[reply] 6.27

[ask] Which binding signal reading was recorded for the sequence CCGATTAACATCAAGCCCCCCCTTGATGTTAATCGGGTCTTGATTCGCTTGACGCTGCTG ?
[reply] 4.92

[ask] Which binding signal reading was recorded for the sequence CCGATTAACATCAGGGAAAACTATGATGTTAATCGGGTCTTGATTCGCTTGACGCTGCTG ?
[reply] 4.07

[ask] Which binding signal reading was recorded for the sequence CCGATTAACATCAGGGAAACACATGATGTTAATCGGGTCTTGATTCGCTTGACGCTGCTG ?
[reply] 3.52

[ask] Which binding signal reading was recorded for the sequence CCGATTAACATCACACAATCCCCTGATGTTAATCGGGTCTTGATTCGCTTGACGCTGCTG ?
[reply] 4.86

* * *

# study.system: GST-Dm-Relish (Drosophila melanogaster, UniProt Q94527 99-473)
# Sequence: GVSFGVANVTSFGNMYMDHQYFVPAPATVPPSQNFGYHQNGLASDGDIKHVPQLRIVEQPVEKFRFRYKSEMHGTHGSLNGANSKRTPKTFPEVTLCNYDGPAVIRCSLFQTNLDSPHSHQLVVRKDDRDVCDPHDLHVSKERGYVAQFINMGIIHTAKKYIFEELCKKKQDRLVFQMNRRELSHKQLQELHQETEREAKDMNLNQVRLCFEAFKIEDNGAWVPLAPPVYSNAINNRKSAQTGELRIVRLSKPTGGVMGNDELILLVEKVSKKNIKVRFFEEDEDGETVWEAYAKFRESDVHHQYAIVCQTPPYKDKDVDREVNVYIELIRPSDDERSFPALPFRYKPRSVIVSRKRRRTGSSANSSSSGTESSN
# test: protein-binding microarray (PBM); PBM: ~300 nM protein, 6 mM HEPES pH 7.8, 80 mM KCl, 0.5 mM EDTA, 0.5 mM EGTA, 6% glycerol, 35 ng/ul poly-dIdC, 1% milk, 1 h, room temperature; Ap Aiptasia and Nv Nematostella (sea anemones) / Co Capsaspora / Aq Amphimedon (sponge) / Dm Drosophila / Hu human; RHD is the Rel homology domain; high values mean tight binding
# experimental.context: dsDNA, one strand shown
recorded.endpoint: binding signal (z-score)
Please state the figure in z-score; there is no need to write the unit.

See these solved cases before continuing.
1. CCGATTAACATCAGGACACCCCCTGATGTTAATCGGGTCTTGATTCGCTTGACGCTGCTG; 6.86
2. CCGATTAACATCAAGGGGGGTGCTGATGTTAATCGGGTCTTGATTCGCTTGACGCTGCTG; 4.11
3. CCGATTAACATCAAGTTTTCCCCTGATGTTAATCGGGTCTTGATTCGCTTGACGCTGCTG; 6.09
4. CCGATTAACATCAAATAATACCCTGATGTTAATCGGGTCTTGATTCGCTTGACGCTGCTG; 3.33
5. CCGATTAACATCAAGACTTTCCCTGATGTTAATCGGGTCTTGATTCGCTTGACGCTGCTG; 2.82
6. CCGATTAACATCAGGGGATAATATGATGTTAATCGGGTCTTGATTCGCTTGACGCTGCTG; 2.58
7. CCGATTAACATCAGGAATGTACCTGATGTTAATCGGGTCTTGATTCGCTTGACGCTGCTG; 4.93
8. CCGATTAACATCAAAATTCCCCGTGATGTTAATCGGGTCTTGATTCGCTTGACGCTGCTG; 8.96
9. CCGATTAACATCAAAAATCCCAATGATGTTAATCGGGTCTTGATTCGCTTGACGCTGCTG; 6.98
10. CCGATTAACATCAGGGAGAGCCCTGATGTTAATCGGGTCTTGATTCGCTTGACGCTGCTG; 1.82

[ask] Which binding signal reading was recorded for the sequence CCGATTAACATCAGGACTCCCCATGATGTTAATCGGGTCTTGATTCGCTTGACGCTGCTG ?
[reply] 6.5

[ask] Which binding signal reading was recorded for the sequence CCGATTAACATCAAAAGTCCCCATGATGTTAATCGGGTCTTGATTCGCTTGACGCTGCTG ?
[reply] 8.38

[ask] Which binding signal reading was recorded for the sequence CCGATTAACATCAAAAGAATCCCTGATGTTAATCGGGTCTTGATTCGCTTGACGCTGCTG ?
[reply] 5.35

[ask] Which binding signal reading was recorded for the sequence CCGATTAACATCAGGCCTCCCCCTGATGTTAATCGGGTCTTGATTCGCTTGACGCTGCTG ?
[reply] 6
